- TARGET_DESC: T1, Human PD-L1 Fc-fusion protein (R&D Systems, 156-B7) (Homo sapiens, UniProt Q9NZQ7)
- T1 construct: programmed death-ligand 1 (PD-L1, B7-H1, CD274), human; also called huPD-L1; B7-H1; source: bought: R&D Systems (156-B7)
- PROTOCOL_NOTES: SPR; Biacore T200, 25°C, HBS (0.01 M HEPES pH 7.4, 0.15 M NaCl, 3 mM EDTA, 0.005% Tween 20); mouse or human PD-L1 Fc-fusion protein amine-coupled on a CM5 chip (650-900 RU); Nb in crude periplasmic extract as analyte, its concentration estimated by CFCA; 9 dilutions, 120 s association, 160 s dissociation; 1-to-1 fit; affinity estimations
- COND: one partner purified
PROPERTY_MEASURED: pKd
For clarity, pKd is expressed as the negative log10 of concentration in mol/L.

Nb C9 (HA-tagged, in periplasmic extract) (VHH, source: E. coli WK6 (pHEN4), crude periplasmic extract) VHH: QVQLQESGGGLVQAGESLRLSCAGSGSTVSSSTMAWWRQTPGNQRELVALVASGGNTNYVDSVKGRFTVSRDNAKNTMYLQMNSLKPEDTAVYYCRILSMNGIWYWGQGTQVTVSS    7.36

Assign pKd to the following record: Nb M1 (HA-tagged, in periplasmic extract) (VHH, source: E. coli WK6 (pHEN4), crude periplasmic extract) VHH: VQAGDSLRLACTLFKYPTNNLCLAWFRQAPGKEREGVAALNTDGVGTYYAKSVEGRFTISQDKSKNEGYLQMDNLKPEDTAIYYCAADPTSRCNNYVQGRWWHEIGSRVWDWGQGTQVTVSS
7.77

Assign pKd to the following record: Nb I1 (HA-tagged, in periplasmic extract) (VHH, source: E. coli WK6 (pHEN4), crude periplasmic extract) VHH: QVQLQESGGGLVQAGGSLRLSCAASGRTFRRYDMGWFRQAPGKEREFVAASTWSADDTYYAGSVKGRFTISRDNAKNTVYLQMNSLKPEDTAVYYCAAGETRKYGFRTTEGYYDSWGQGTQVTVSS
6.49

Assign pKd to the following record: Nb B1 (HA-tagged, in periplasmic extract) (VHH, source: E. coli WK6 (pHEN4), crude periplasmic extract) VHH: QVQLQESGGGLVHPGGSLRLSCAASGFSLDNYAIGWFRQAPGKEREGVSCISSGSEGRRYYADFVKGRFTISRDNAKNTAFLQMNSLKPEDTADYYCATVGFCSSQYGMEFVGDYWGQGTQVTVSS
8.22
